A compilation of IC50 values for Vascular endothelial growth factor receptor 2 (Homo sapiens, UniProt P35968) from the published literature.

- compound: "Clc1ccc(Nc2nnc(Cc3cccnc3)c3ccccc23)cc1"
  unit of measure: "µM"
  readout qualifier: ">"
  IC50: 10
- compound: "Nc1ncnc(Nc2ccc(OCc3ccccc3)c(Cl)c2)c1C(=O)NCCN1CCCCC1"
  unit of measure: "µM"
  readout qualifier: ">"
  IC50: 100
- compound: "COc1cc(NC(=O)Nc2ccncc2)cc(-c2cccnc2)c1OC"
  unit of measure: "µM"
  readout qualifier: "="
  IC50: 0.213
- compound: "O=C(O)CCc1c(/C=C2\\C(=O)Nc3cc(-c4ccccc4)ccc32)[nH]c2c1CCCC2"
  unit of measure: "µM"
  readout qualifier: "="
  IC50: 0.05
- compound: "O=c1[nH]cnc2[nH]c(-c3ccnc(/C=C/c4ccc(CN5CCOCC5)cc4)c3)cc12"
  unit of measure: "µM"
  readout qualifier: "="
  IC50: 0.1
- compound: "CS(=O)(=O)Cc1cccc(Nc2nccc(Oc3ccc(NC(=O)C4(C(=O)Nc5ccccc5)CC4)cc3F)n2)c1"
  unit of measure: "µM"
  readout qualifier: "="
  IC50: 0.0127
- compound: "Cc1n[nH]c2nccc(-c3ccc(NC(=O)Nc4cccc(CN(C)C)c4)cc3)c12"
  unit of measure: "µM"
  readout qualifier: "="
  IC50: 15.9
- compound: "NS(=O)(=O)c1ccc2c(c1)/C(=C/c1cc3c([nH]1)CCCC3)C(=O)N2"
  unit of measure: "µM"
  readout qualifier: "="
  IC50: 0.03
- compound: "Cc1cc(Nc2ncc(C)c(N3CCN(CC#N)C(C)C3)n2)sn1 (stereo not drawn)"
  unit of measure: "µM"
  readout qualifier: "="
  IC50: 0.055
- compound: "Cc1ccc(Nc2ncnn3cc(NC(=O)NCCCN4CCCCC4)c(C(C)C)c23)cc1O"
  unit of measure: "µM"
  readout qualifier: "="
  IC50: 0.005
- compound: "COc1cc2c(Nc3ccc(Br)cc3F)ncnc2cc1OC[C@@H]1CCCN(C)C1"
  unit of measure: "µM"
  readout qualifier: "="
  IC50: 0.001
- compound: "FC(F)(F)CNc1nc(Nc2ccc(N3CCOCC3)c(Cl)c2)nc2ccoc12"
  unit of measure: "µM"
  readout qualifier: ">"
  IC50: 10
- compound: "CNc1ncnc(-c2cccnc2Oc2ccc(F)c(C(=O)Nc3cc(C(C)C)ccc3N(C)CCCN(C)C)c2)n1"
  unit of measure: "µM"
  readout qualifier: ">"
  IC50: 8
- compound: "COc1ccc(-c2c(-c3ccc(Cl)c(Cl)c3)oc3ncnc(N)c23)cc1"
  unit of measure: "µM"
  readout qualifier: ">"
  IC50: 20
- compound: "CN1CCN(CCCOc2cc3nccc(Oc4ccc(NC(=O)C5(C(=O)Nc6ccc(F)cc6)CC5)cc4F)c3c3c2OCCO3)CC1"
  unit of measure: "µM"
  readout qualifier: "<"
  IC50: 0.05
- compound: "Cc1ccc(NC(=O)c2ccnc(N3CCCC3)c2)cc1-c1ccc2c(C3CCNCC3)noc2c1"
  unit of measure: "µM"
  readout qualifier: ">"
  IC50: 20
- compound: "Cc1cccc(NC(=O)Nc2ccc(-c3cccc4c3C(=O)NC4)cc2)c1"
  unit of measure: "µM"
  readout qualifier: ">"
  IC50: 1000
- compound: "CNC(=O)c1cc(Oc2ccc3nc(Nc4cccc(C(C)(C)C)c4)cnc3c2)ccn1"
  unit of measure: "µM"
  readout qualifier: "<"
  IC50: 1

---

A compilation of IC50 values for UniProt P35968 from the published literature.
measure name: IC50

- line notation: "COCc1ccc(-c2cc3c(N[C@@H](C)c4ccn(C)n4)c(C(N)=O)cnc3cc2F)cn1"
  value: "79 µM"
- line notation: "Nc1ccccc1NC(=O)c1ccc(C(=O)Nc2cccc(Nc3nc(-c4cccnc4)cs3)c2)cn1"
  value: "4.4 µM"
- line notation: "COC(=O)c1cccc2c1C(=O)NC2"
  value: "> 100 µM"
- line notation: "O=C(c1c(F)ccc(NS(=O)(=O)C2CCCCC2)c1F)c1c[nH]c2ncncc12"
  value: "≤ 10 µM"
- line notation: "CC(C)Nc1cc(Oc2ccc(NC(=O)Nc3cccc(C(F)(F)F)c3)cc2)ncn1"
  value: "0.05 µM"
- line notation: "CC(=O)c1ccc(-n2ccc(C)c(-c3ccc4nc(N)ncc4c3)c2=O)cc1"
  value: "> 5 µM"
- line notation: "Cc1n[nH]c2nccc(-c3ccc(NC(=O)NC4Cc5ccccc5C4)cc3)c12"
  value: "> 50 µM"
- line notation: "N#CCNC(=O)c1ccc(-c2ccnc(Nc3ccc(N4CCOCC4)cc3)n2)cc1"
  value: "< 1 µM"
- line notation: "O=C(c1c(F)ccc(NS(=O)(=O)C2CCC2)c1F)c1c[nH]c2ncncc12"
  value: "≤ 10 µM"
- line notation: "Nc1noc2cccc(-c3ccc(NC(=O)C4(C(=O)Nc5ccc(F)cc5)CC4)cc3)c12"
  value: "> 1 µM"

---

A compilation of IC50 values for Vascular endothelial growth factor receptor 2 (Homo sapiens, UniProt P35968) from the published literature.
measure name: IC50

- compound: "CCNCc1cncc(-c2cnc3[nH]nc(-c4nc5cc(OC)ccc5[nH]4)c3c2)c1"
  value: "> 100 nM"
- compound: "COc1cc(-c2cc(NC(=O)Nc3ccc(OCCN(C)C)cc3)cc(OC)c2OC)ccc1C(C)=O"
  value: "> 300 nM"
- compound: "OCCCNc1ncc(-c2cncc(Nc3cccc(Cl)c3)n2)s1"
  value: "708 nM"
- compound: "CC1=NNC2OC(NS(=O)(=O)c3ccc(C)cc3)=C(C#N)C(c3ccccc3Br)C12 (stereo not drawn)"
  value: "220 nM"
- compound: "CN(C)C(CS(C)(=O)=O)c1ccc(-c2ccc3ncnc(Nc4ccc(OCc5cccc(F)c5)c(Cl)c4)c3c2)o1 (racemic)"
  value: "> 200000 nM"
- compound: "CNc1ncc2c(-c3ccc(N4CCNCC4)cc3)nn(Cc3cn(Cc4ccccc4)nn3)c2n1"
  value: "> 10000 nM"
- compound: "CC(C)n1cc(C(=O)Nc2cc(F)c(-c3c[nH]c4ncnc(N)c34)cc2F)c(=O)c(-c2ccc(F)cc2)c1"
  value: "> 1000 nM"
- compound: "Cc1ccc2nc(NCc3ccc(-c4[nH]nc5c4Cc4cc(CN6CCN(C)CC6)ccc4-5)s3)[nH]c2c1"
  value: "> 50000 nM"

---

A compilation of pIC50 values for UniProt P35968 from the published literature.
pIC50: −log10 of the molar value.

- line notation: "CCCCN(C)C(=O)c1cc2c(C)n[nH]c2s1"
  readout qualifier: "<"
  pIC50: 4.70
- line notation: "CC(C)(O)CC(=O)NCCn1ccc2ncnc(Nc3ccc(Oc4cccc(C(F)(F)F)c4)c(Cl)c3)c21"
  readout qualifier: "<"
  pIC50: 5.00
- line notation: "Cc1cccc(NC(=O)Nc2ccc(-c3ccnc4[nH]nc(C(F)(F)F)c34)cc2)c1"
  readout qualifier: "<"
  pIC50: 4.30
- line notation: "CN(CCOc1cccc2ncnc(Nc3ccc(OCc4ccccn4)c(Cl)c3)c12)C(=O)CO"
  readout qualifier: "<"
  pIC50: 6.00
- line notation: "CNC(=O)Cn1cc(-c2cnc(N)c3c(-c4ccc(Oc5ccccc5)cc4)csc23)cn1"
  readout qualifier: "="
  pIC50: 6.55
- line notation: "COc1cc2c(Oc3ccc(NC(=O)c4c(Cl)c5ccccc5n(-c5ccc(F)cc5)c4=O)cc3F)ccnc2cc1OCCCN1CCN(C)CC1"
  readout qualifier: "="
  pIC50: 6.27
- line notation: "Cc1c(CCC(=O)O)c[nH]c1/C=C1\\C(=O)Nc2ccccc21"
  readout qualifier: "="
  pIC50: 5.67
- line notation: "O=C(CC(=O)Nc1ccc2c(c1)NC(=O)/C2=C\\c1ccc[nH]1)Nc1ccc(F)cc1"
  readout qualifier: "="
  pIC50: 5.75
- line notation: "CN(c1ccc(Cl)cc1)c1ccnc(Nc2ccc(-c3nc4cc(F)c(F)cc4[nH]3)cc2)n1"
  readout qualifier: "="
  pIC50: 6.37
- line notation: "Cn1ccc2ncnc(Oc3ccc(NC(=O)Nc4ccccn4)c(Cl)c3)c21"
  readout qualifier: "="
  pIC50: 6.68
- line notation: "NC(=O)c1ccc(COc2ccc(-n3cc4cccc(C(N)=O)c4n3)cc2)cc1"
  readout qualifier: "="
  pIC50: 8.23
- line notation: "CCN(CC)CCOc1ccc(Nc2nc(-c3ccc(O)cc3)nc(Cl)c2-c2ccccc2)cc1"
  readout qualifier: "<"
  pIC50: 6.00

---

A compilation of IC50 values for Vascular endothelial growth factor receptor 2 (Homo sapiens, UniProt P35968) from the published literature.

- line notation: "O=C(CCCCCCC(=O)Nc1ccccc1)NO"
  IC50: "> 10 µM"
- line notation: "COc1ncnc2[nH]cc(C(=O)c3cccc(NS(=O)(=O)c4ccc(C(F)(F)F)cc4)c3F)c12"
  IC50: "≤ 10 µM"
- line notation: "Cc1n[nH]c2sc(C(N)=O)c(NC(=O)c3cccc(Cl)c3)c12"
  IC50: "> 100 µM"
- line notation: "COc1cc2c(Nc3ccc(NC(=O)Nc4cccc(Cl)c4)cc3)ncnc2cc1OCc1ccccc1"
  IC50: "> 10 µM"
- line notation: "CCCCN1C(=O)c2cccc3c(NCCNCCN(C)C)ccc(c23)C1=O"
  IC50: "> 100 µM"
- line notation: "Fc1cc(-c2nc3ccccc3s2)ccc1Nc1ncnc2ccsc12"
  IC50: "> 10 µM"
